tested on: Pseudomonas aeruginosa; assay: Antibacterial activity against Pseudomonas aeruginosa DSM 22644 incubated for 24 hrs by disk diffusion method; assay type: functional; settings: DSM 22644, 24 h
readout.name: MIC

In [3]: df
Out[3]:
                            chemical_smiles     reading
0  CC(C)=CC[C@H](O)[C@@H](C)[C@H]1CC[C@@]2(C)c3ccc4c(c3C[C@@H](O)[C@]12C)[C@@H](O)C[C@H](O)C4(C)C     2 µg/mL
1  CC(C)[C@@H](C)/C=C/[C@@H](C)[C@H]1CC[C@H]2C3=C[C@H](O)[C@@]4(O)C[C@@H](O)CC[C@]4(C)C3=CC[C@]12C  > 10 µg/mL
2  CO[C@]12CC[C@]3(C)[C@@H]([C@H](C)/C=C/[C@H](C)C(C)C)CC[C@H]3C1=CC(=O)O2  > 10 µg/mL
3  CC(C)[C@@H](C)/C=C/[C@@H](C)[C@H]1CC[C@@]2(O)C3=CC(=O)[C@@]4(O)C[C@@H](O)CC[C@]4(C)[C@@]3(O)CC[C@]12C  > 10 µg/mL

Next up:
input: Please look up its MIC: `CC(C)[C@@H](C)/C=C/[C@@H](C)[C@H]1CC[C@H]2/C(=C/C(=O)O[C@]3(C)CCC=CC3=O)C(=O)CC[C@]12C`
output: > 10 µg/mL
